- assayed-target: Hypoxia-inducible factor 1-alpha (Homo sapiens) (UniProt Q16665)
- Sequence (Q16665 whole entry, looked up): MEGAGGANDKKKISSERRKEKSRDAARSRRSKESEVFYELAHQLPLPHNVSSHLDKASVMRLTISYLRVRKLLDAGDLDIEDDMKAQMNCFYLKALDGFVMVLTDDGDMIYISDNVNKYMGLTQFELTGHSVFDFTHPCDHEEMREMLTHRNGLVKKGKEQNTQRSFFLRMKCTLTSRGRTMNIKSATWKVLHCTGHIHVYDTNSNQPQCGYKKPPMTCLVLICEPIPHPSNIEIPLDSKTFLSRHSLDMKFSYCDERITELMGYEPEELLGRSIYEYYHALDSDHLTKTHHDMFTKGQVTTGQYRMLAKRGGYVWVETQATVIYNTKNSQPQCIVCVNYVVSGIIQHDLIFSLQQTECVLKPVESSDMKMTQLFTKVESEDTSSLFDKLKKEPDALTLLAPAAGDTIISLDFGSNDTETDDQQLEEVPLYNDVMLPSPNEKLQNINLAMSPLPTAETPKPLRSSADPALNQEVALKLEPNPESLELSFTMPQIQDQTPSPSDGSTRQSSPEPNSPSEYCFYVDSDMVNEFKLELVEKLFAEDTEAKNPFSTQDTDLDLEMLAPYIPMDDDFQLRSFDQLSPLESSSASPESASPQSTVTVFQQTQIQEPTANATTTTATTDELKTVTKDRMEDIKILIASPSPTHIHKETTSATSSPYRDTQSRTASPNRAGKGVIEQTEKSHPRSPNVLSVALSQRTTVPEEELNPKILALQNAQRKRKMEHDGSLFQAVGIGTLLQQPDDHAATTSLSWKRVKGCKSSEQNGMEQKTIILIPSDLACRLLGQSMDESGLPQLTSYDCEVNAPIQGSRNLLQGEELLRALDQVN
- protocol: activators of HIF1alpha nuclear accumulation, confirmation, imaging, fluorescence, U2OS GFP-HIF1alpha (AID 434951)
- condition-description: U2OS GFP-HIF1alpha nuclear intensity, high-content imaging
The source made the active and inactive calls.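 How the source made its calls: active means a fitted half-maximal concentration EC50 for the rise in nuclear signal no higher than ten times the top dose tested; inconclusive means flat fit with activity between 30% and 70%, or unusable fit; inactive means EC50 beyond ten times the top dose.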
Pick one and only one: active, inactive

Previously resolved entries follow.
| compound | group |
| --- | --- |
| CCOC(=O)c1c(C)[nH]c(C(=O)N/N=C\c2ccccc2O)c1C | active |
| CC1CN(S(=O)(=O)c2cccc(C(=O)N(CCc3ccccc3)Cc3ccccc3)c2)CC(C)O1 (stereo not given) | inactive |
| O=C(CCc1ccccc1)NC(c1cccs1)c1cc(Cl)c2cccnc2c1O (stereo not given) | active |

Which outcome was assigned to O=C(CSC1=NNC(c2ccccn2)S1)Nc1ccc(C(F)(F)F)cc1 (stereo not given) in this test?
active

Which outcome was assigned to COc1cc(C(=O)N2CCN(C(=O)Cc3ccccc3)CC2)cc(OC)c1OC in this test?
inactive

Which outcome was assigned to CC(C)c1ccc(NC(=O)CCc2ccccc2)cc1 in this test?
inactive

###

- assayed-target: Hypoxia-inducible factor 1-alpha (Homo sapiens)
- protocol: activators of HIF1alpha nuclear accumulation, confirmation, imaging, fluorescence, U2OS GFP-HIF1alpha (AID 434951)
- condition-description: U2OS GFP-HIF1alpha nuclear intensity, high-content imaging
Active and inactive are the calls of the source.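 How the source made its calls: active means a fitted half-maximal concentration EC50 for the rise in nuclear signal no higher than ten times the top dose tested; inconclusive means flat fit with activity between 30% and 70%, or unusable fit; inactive means EC50 beyond ten times the top dose.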
Pick one and only one: active, inactive

| compound | assayed-target | group |
| --- | --- | --- |
| O=C(NCCCn1ccnc1)c1cc(-c2cccs2)on1 | Hypoxia-inducible factor 1-alpha (Homo sapiens) | active |
| Cn1cc(CC(=O)N2CCN(c3ccc(Cl)cc3)CC2)c2ccccc21 | Hypoxia-inducible factor 1-alpha (Homo sapiens) | inactive |
| CCC1CCc2sc(C(=O)NCc3ccccn3)cc2C1 (centres undefined) | Hypoxia-inducible factor 1-alpha (Homo sapiens) | inactive |
| Cc1cc(C)n(-c2ccc3cccc(NS(C)(=O)=O)c3n2)n1 | Hypoxia-inducible factor 1-alpha (Homo sapiens) | active |
| Nc1nc(-c2ccccn2)nc(N)c1Cc1ccc(Cl)cc1Cl | Hypoxia-inducible factor 1-alpha (Homo sapiens) | active |

Which outcome was assigned to Cc1cccc(C)c1Nc1c(-c2ccccn2)nc2ccccn12 in this test?
active

Which outcome was assigned to O=C(CSc1nc2ccccc2c(=O)n1-c1ccccc1)NC(=O)CN1CCCC1=O in this test?
inactive

###

- assayed-target: Hypoxia-inducible factor 1-alpha (Homo sapiens)
- protocol: activators of HIF1alpha nuclear accumulation, confirmation, imaging, fluorescence, U2OS GFP-HIF1alpha (AID 434951)
- condition-description: U2OS GFP-HIF1alpha nuclear intensity, high-content imaging
Calls of active or inactive are those of the source.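 The calls were made as follows: active = a fitted half-maximal concentration EC50 for the rise in nuclear signal no higher than ten times the top dose tested; inconclusive = flat fit with activity between 30% and 70%, or unusable fit; inactive = EC50 beyond ten times the top dose.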
Pick one and only one: active, inactive

Previously resolved entries follow.
| compound | assayed-target | group |
| --- | --- | --- |
| COc1ccccc1NC(=O)CN(C)S(=O)(=O)c1cccc2cccnc12 | Hypoxia-inducible factor 1-alpha (Homo sapiens) | inactive |
| O=C(C1=C[C@@H](C2CC2)C[C@@H](OCCCCO)O1)N1CCN(Cc2ccc3c(c2)OCO3)CC1 | Hypoxia-inducible factor 1-alpha (Homo sapiens) | inactive |
| NC(=O)CSc1nnc2ccc(-c3ccc(Cl)cc3)nn12 | Hypoxia-inducible factor 1-alpha (Homo sapiens) | inactive |

Which outcome was assigned to Cc1ccc2[nH]c3c(=O)n(CC(=O)NCCCN(C)Cc4ccccc4)ncc3c2c1 in this test?
inactive

Which outcome was assigned to C=CCOc1ccc(/C=C2\SC(N)=NC2=O)cc1OC in this test?
inactive

Which outcome was assigned to CCOc1ccccc1NC(=O)COc1ccc2c(c1)OCO2 in this test?
inactive

Which outcome was assigned to O=C(O)c1ccc2cc(-c3ccccc3)[nH]c2c1 in this test?
inactive

Which outcome was assigned to CCCCn1c(=O)c2c(O)cc(=O)oc2c2ccccc21 in this test?
inactive

Which outcome was assigned to O=c1[nH]c(C2CCN(S(=O)(=O)c3ccc(C(F)(F)F)cc3)CC2)nc2c1nnn2Cc1ccc(F)cc1 in this test?
inactive

Which outcome was assigned to C/C(=N\Nc1nc2ccccc2[nH]1)c1ccccn1 in this test?
active

Which outcome was assigned to c1ccc(Cc2nnc(-c3ccccc3)o2)cc1 in this test?
active
